Tested on: 126254-015-R-J1-PDC complex spheroid growth, % test/control
EXPERIMENT_DESCRIPTION: Anticancer human tumor 126254-015-R-J1-PDC patient-derived soft tissue sarcoma cell line growth inhibition [Asc]
CONDITION_DESCRIPTION: second compound 0.01 µM; first compound 0.01 µM; hits give low values
MEASURE: viability, T/C (%)
Provide only the numeric value, understood in %.

[ask] Enter reported viability, T/C observed with 126254-015-R-J1-PDC complex spheroid growth, % test/control for CCN1CCN(Cc2ccc(Nc3ncc(F)c(-c4cc(F)c5nc(C)n(C(C)C)c5c4)n3)nc2)CC1 + CNC(C)C(=O)NC1CN(S(=O)(=O)c2cccc(S(=O)(=O)N3CCC4CCC(C(=O)NC(c5ccccc5)c5ccccc5)N4C(=O)C(NC(=O)C(C)NC)C3)c2)CCC2CCC(C(=O)NC(c3ccccc3)c3ccccc3)N2C1=O
[reply] 96.4

[ask] Request: viability, T/C, test system 126254-015-R-J1-PDC complex spheroid growth, % test/control, entry NC1CCC(NC2CC2c2ccccc2)CC1 (stereo not drawn) + CNC(C)C(=O)NC1CN(S(=O)(=O)c2cccc(S(=O)(=O)N3CCC4CCC(C(=O)NC(c5ccccc5)c5ccccc5)N4C(=O)C(NC(=O)C(C)NC)C3)c2)CCC2CCC(C(=O)NC(c3ccccc3)c3ccccc3)N2C1=O
[reply] 75.5

[ask] Lab note: need viability, T/C with 126254-015-R-J1-PDC complex spheroid growth, % test/control for entry COc1c(OCCCN2CCOCC2)ccc2c3n(c(=NC(=O)c4cnc(N)nc4)nc12)CCN3 + CNC(C)C(=O)NC1CN(S(=O)(=O)c2cccc(S(=O)(=O)N3CCC4CCC(C(=O)NC(c5ccccc5)c5ccccc5)N4C(=O)C(NC(=O)C(C)NC)C3)c2)CCC2CCC(C(=O)NC(c3ccccc3)c3ccccc3)N2C1=O , please look it up.
[reply] 82.4

----------
Tested on: 126254-015-R-J1-PDC complex spheroid growth, % test/control
EXPERIMENT_DESCRIPTION: Anticancer human tumor 126254-015-R-J1-PDC cell line growth inhibition [Asc];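 note: spheroids exposed to compound for seven days; 100% = DMSO vehicle control wells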
CONDITION_DESCRIPTION: second compound 0.316 µM; first compound 0.01 µM; hits give low values
Provide the reported viability, T/C of each item.
Give the quantity in %, number only.

[ask] Record request: viability, T/C value, item CCN1CCN(Cc2ccc(Nc3ncc(F)c(-c4cc(F)c5nc(C)n(C(C)C)c5c4)n3)nc2)CC1 + CNC(C)C(=O)NC1CN(S(=O)(=O)c2cccc(S(=O)(=O)N3CCC4CCC(C(=O)NC(c5ccccc5)c5ccccc5)N4C(=O)C(NC(=O)C(C)NC)C3)c2)CCC2CCC(C(=O)NC(c3ccccc3)c3ccccc3)N2C1=O
[reply] 62.5

[ask] What does the record list as viability, T/C for NC1CCC(NC2CC2c2ccccc2)CC1 (centres undefined) + Cc1c(S(C)(=O)=O)c(-c2cc(F)cc(N3CCN(c4ccc(NS(=O)(=O)c5ccc(NC(CCN6CCC(C(=O)OCCCP(=O)(O)O)CC6)CSc6ccccc6)c(S(=O)(=O)C(F)(F)F)c5)cc4)CC3)c2)c(-c2ccc(Cl)cc2)n1C(C)C ?
[reply] 70.1

[ask] Which measured viability, T/C value corresponds to CCN1CCN(Cc2ccc(Nc3ncc(F)c(-c4cc(F)c5nc(C)n(C(C)C)c5c4)n3)nc2)CC1 + Cc1c(S(C)(=O)=O)c(-c2cc(F)cc(N3CCN(c4ccc(NS(=O)(=O)c5ccc(NC(CCN6CCC(C(=O)OCCCP(=O)(O)O)CC6)CSc6ccccc6)c(S(=O)(=O)C(F)(F)F)c5)cc4)CC3)c2)c(-c2ccc(Cl)cc2)n1C(C)C ?
[reply] 89.1

[ask] GET /values?readout=viability, T/C&item= O=C(c1ccc(F)c(F)c1Nc1ccc(I)cc1F)N1CC(O)([C@@H]2CCCCN2)C1 + Cc1c(S(C)(=O)=O)c(-c2cc(F)cc(N3CCN(c4ccc(NS(=O)(=O)c5ccc(NC(CCN6CCC(C(=O)OCCCP(=O)(O)O)CC6)CSc6ccccc6)c(S(=O)(=O)C(F)(F)F)c5)cc4)CC3)c2)c(-c2ccc(Cl)cc2)n1C(C)C
[reply] 87.7
